Kindly state TGI for each of the entries shown.
Test system: CAKI-1 renal
Assay: NCI tumour cell line growth inhibition, 48 h

{"columns": ["COMPOUND", "READOUT_VALUE"],
 "data": [
  ["Cn1c(NN)nc(-c2ccc([N+](=O)[O-])cc2)c(C#N)c1=O", "61.6 µM"],
  ["COC1(C(C)(C)C)C=C(C(C)(C)C)P(=O)(O)O1 (centres undefined)", "> 100 µM"],
  ["O=C(CC(=O)c1ccc([N+](=O)[O-])cc1)C(=O)Nc1nccs1", "> 100 µM"]
]}

Field: TGI. Fill in for each record below.
1. Nc1nc(Cl)c(N)c(NCC2(CO)CC(Cc3ccccc3)C2)n1 (centres undefined)
2. COc1ccc(N)c(C(O)CCNC(C)=O)c1 (centres undefined)
3. COC(=O)CCC1(C)C2CCC1(C)/C(=N/O)C2 (centres undefined)
4. O=C1c2cccc3cccc(c23)C(=O)N1CCCNCCCCNCCCN1C(=O)c2cccc3cccc(c23)C1=O
5. CCCN(CCCN)/[N+]([O-])=N\O

1: > 100 µM; 2: > 100 µM; 3: > 100 µM; 4: 5.65 µM; 5: > 100 µM

====

Hi there, I'd appreciate the recorded TGI for every entry that follows.
Tested on: UACC-257 melanoma
Assay: NCI tumour cell line growth inhibition, 48 h

{"columns": ["COMPOUND", "TGI"],
 "data": [
  ["O=S1CSCS1 (stereo not given)", "> 100 µM"]
]}

# return TGI for each item in the list
1. COC(=O)Nc1nc2ccc(Oc3ccc4nc(NC(=O)OC)[nH]c4c3)cc2[nH]1
2. C/C(=N/NC(=O)c1ccncc1)c1ccc(NC(=O)C(=O)Nn2c(=S)[nH]c3ccccc3c2=O)cc1
3. Cn1cc(C2=C(c3c4n(c5ccccc35)CCCC4)C(=O)NC2=O)c2ccccc21
4. Cc1oc2nc[nH]c(=O)c2c1C(=O)/C=C/c1ccc(Cl)cc1
5. O=[N+]([O-])c1ccc(N=Nc2c(O)ccc3cc(S(=O)(=O)O)ccc23)cc1
6. C=CCn1c(=O)c2cnc(Nc3ccc(N4CCN(C)CC4)cc3)nc2n1-c1ccc2c(n1)[C@@](O)(CC)CC2
7. CN1CCC(CNC(=O)CCCCCCCCC(=O)NCC2(c3ccccc3)CCN(C)CC2)(c2ccccc2)CC1

1. > 100 µM
2. > 100 µM
3. > 25 µM
4. 12.7 µM
5. > 100 µM
6. 18.1 µM
7. > 100 µM

Record TGI for all entries; do not skip any.
1. CC(C)(C)OC(=O)NC1CC=CCC1NC(=O)OC(C)(C)C (stereo not given)
2. CC(C)(C)N/N=C(\Cc1occc(=O)c1O)C(=O)Nc1ccc([N+](=O)[O-])cc1[N+](=O)[O-]
3. Cc1cc(N2CCN(C)CC2)nc(NCc2cc(Nc3ccnc4cc(Cl)ccc34)ccc2F)n1
4. Cc1c(C(=O)CC(=O)C(=O)Nc2c(C(C)C)cccc2C(C)C)[n+](=O)c2ccccc2n1[O-]
5. CN(C)CCNc1ccc2ncnc3c2c1C(=O)c1ccccc1-3
6. N=CCCN(CCC=N)c1ccc(/C=C2\CN(NC(=O)c3ccc(Cl)cc3)C(c3ccccc3)=N2)cc1
7. COc1ccc(NS(=O)c2ccc(-c3ccccc3)cc2)cc1 (stereo not given)

1. > 100 µM
2. > 100 µM
3. 3.9 µM
4. 12.6 µM
5. 11.5 µM
6. > 100 µM
7. > 100 µM
